Listing of entries alongside the reported Percent Eluted by Fraction, 1M NaCl.
target: A1PI (Homo sapiens); construct: Human plasma is currently the only approved source of therapeutic AlPI; assay: Purification of A1PI from Effluent II+III on peptide column, A1PI mass balance; format: binding; details: A1PI; 1 ml Eff. II+III, 4° C.
Sequence (P01009 25-418): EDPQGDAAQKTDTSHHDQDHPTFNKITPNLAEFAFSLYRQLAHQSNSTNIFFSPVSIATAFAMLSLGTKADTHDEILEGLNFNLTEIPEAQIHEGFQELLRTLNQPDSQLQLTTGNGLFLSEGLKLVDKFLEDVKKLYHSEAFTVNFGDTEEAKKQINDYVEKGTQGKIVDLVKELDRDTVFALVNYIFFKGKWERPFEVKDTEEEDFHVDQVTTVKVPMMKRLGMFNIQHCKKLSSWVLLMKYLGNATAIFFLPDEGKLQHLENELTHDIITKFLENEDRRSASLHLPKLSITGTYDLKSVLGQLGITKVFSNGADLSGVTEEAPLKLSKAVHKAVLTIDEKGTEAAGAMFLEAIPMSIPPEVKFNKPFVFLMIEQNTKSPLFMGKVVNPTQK
Ends that are not written are not given here.
Return type: number; implicit unit %.

Sample answers from the record:
> print(dat)
   substance  val
1     RLWRYG   22
2     RYRIFI    9
3     VIWLVR    9

Input ARWYIH . Output Percent Eluted by Fraction, 1M NaCl: 7

The value of Percent Eluted by Fraction, 1M NaCl measured for the substance IIWLYK turned out to be 0

Note to self: Percent Eluted by Fraction, 1M NaCl recorded for LIVHRW was 16

For RAFWYI the substance record lists Percent Eluted by Fraction, 1M NaCl as 4

Form: substance = QYHFWY ; Percent Eluted by Fraction, 1M NaCl = 6
